# PROTOCOL_TEXT: GLUT-2 uptake experiment (phloretin blockade, MTS)
# Type: cell-based
# STUDY_CONDITIONS: African green monkey, VERO cells; 75μM; No addition of Ph; read-out: VERO Cell Viability %
ENDPOINT_NAME: viability at 72 h, 75 µM
Put down the number, then write its unit next to it.

Report viability at 72 h, 75 µM, nothing else, for this molecule: "O=C(CCCCCCn1cc(-c2ccc(O[C@H]3O[C@H](CO)[C@@H](O)[C@H](O)[C@H]3O)cc2)nn1)NO"
98.4%

---

# Tested on: GLUT-2
# PROTOCOL_TEXT: GLUT-2 uptake experiment (phloretin blockade, MTS)
# Type: cell-based
# STUDY_CONDITIONS: African green monkey, VERO cells, with phloretin 25 µM; 6.5 μM; Pre-treated with 25 μM Ph; read-out: VERO Cell Viability %
ENDPOINT_NAME: viability at 72 h, 6.5 µM (%)
Numbers only, in %.

Please look at O=C(CCCCCCC(=O)Nc1ccccc1)NO [SAHA, vorinostat, reference compound] and tell me its recorded viability at 72 h, 6.5 µM on GLUT-2.
87.2

---

# SYSTEM_UNDER_TEST: UniProt:Q9UBN7
# PROTOCOL_TEXT: HDAC isoform inhibition (BPS Bioscience)
ENDPOINT_NAME: pIC50
Numbers only, as −log10 of the molar value.

// Input: O=C(CCCCCCn1cc(-c2ccc(O[C@H]3O[C@H](CO)[C@@H](O)[C@H](O)[C@H]3O)cc2)nn1)NO [STR-V-53] . Output its pIC50 only.
8.46

---

# PROTOCOL_TEXT: Tissue distribution by LC-MS
# Format: in vivo
# STUDY_CONDITIONS: both sexes, C57Bl/6, mouse, liver (relative to plasma), ip; healthy mice, i.p. 25 mg/kg, 8 h; read-out: Level in the liver relative to plasma level
ENDPOINT_NAME: Kp at 8 h

Respond only with Kp at 8 h recorded for "O=C(CCCCCCn1cc(-c2ccc(O[C@H]3O[C@H](CO)[C@@H](O)[C@H](O)[C@H]3O)cc2)nn1)NO"
~4

---

# PROTOCOL_TEXT: Tissue distribution by LC-MS
# Assay type: in vivo
# STUDY_CONDITIONS: both sexes, C57Bl/6, mouse, plasma, ip; healthy mice, i.p. 25 mg/kg, 8 h postinjection; read-out: Average level in plasma
ENDPOINT_NAME: concentration at 8 h

State its concentration at 8 h for this molecule: "O=C(CCCCCCn1cc(-c2ccc(O[C@H]3O[C@H](CO)[C@@H](O)[C@H](O)[C@H]3O)cc2)nn1)NO"
~0.01 ng/mL

---

# SYSTEM_UNDER_TEST: HDAC2 (Homo sapiens, UniProt Q92769)
# Sequence (Q92769 whole entry, canonical isoform): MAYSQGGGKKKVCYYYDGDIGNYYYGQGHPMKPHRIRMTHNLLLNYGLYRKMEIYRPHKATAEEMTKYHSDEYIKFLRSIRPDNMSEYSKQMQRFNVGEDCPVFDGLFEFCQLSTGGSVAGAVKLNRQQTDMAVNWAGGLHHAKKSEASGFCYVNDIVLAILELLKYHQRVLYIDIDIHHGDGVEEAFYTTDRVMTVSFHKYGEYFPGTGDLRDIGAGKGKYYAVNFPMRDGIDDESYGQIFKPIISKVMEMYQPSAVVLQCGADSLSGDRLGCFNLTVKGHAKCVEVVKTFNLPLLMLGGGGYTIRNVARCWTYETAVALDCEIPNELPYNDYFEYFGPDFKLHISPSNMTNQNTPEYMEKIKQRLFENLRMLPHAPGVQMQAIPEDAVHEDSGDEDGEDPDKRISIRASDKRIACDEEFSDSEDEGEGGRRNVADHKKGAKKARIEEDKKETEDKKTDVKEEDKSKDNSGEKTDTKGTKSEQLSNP
# PROTOCOL_TEXT: HDAC isoform inhibition (BPS Bioscience)
# STUDY_CONDITIONS: read-out: HDAC2 IC50; Table S1
pIC50: −log10 of the molar value.
Tick 1 (yes) if pIC50 is 8 or greater. Tick 0 (no) if pIC50 is less than 8.

# count of solved cases: 4
CC(=O)OCC1OC(Oc2ccc(-c3cn(CCCCCCC(=O)NO)nn3)cc2)C(OC(C)=O)C(OC(C)=O)C1OC(C)=O (stereo not shown) [STR-V-167]    0 (no)
CC(=O)O[C@H]1[C@H](Oc2ccc(-c3cn(CCCCCCC(=O)NO)nn3)cc2)O[C@H](C)C[C@@H]1N(C)C    0 (no)
O=C(CCCCCCn1cc(-c2ccc(O[C@@H]3O[C@H](CO)[C@@H](O)[C@H](O)[C@H]3O)cc2)nn1)NO    0 (no)
O=C(CCCCCCn1cc(-c2ccc3cc(O[C@H]4O[C@H](CO)[C@@H](O)[C@H](O)[C@H]4O)ccc3c2)nn1)NO    0 (no)

Turning now to a further record.
Identify whether the reported pIC50 of the following compound is 8 or greater: CC(=O)OCC1OC(Oc2ccc(-c3cn(CCCCCCC(=O)NO)nn3)cc2)C(OC(C)=O)C(OC(C)=O)C1OC(C)=O (stereo not shown) [STR-V-176]
1 (yes)

---

# System: GLUT-2
# PROTOCOL_TEXT: GLUT-2 uptake experiment (phloretin blockade, MTS)
# Assay type: cell-based
# STUDY_CONDITIONS: African green monkey, VERO cells, with phloretin 25 µM; 75μM; Pre-treated with 25 μM Ph; read-out: VERO Cell Viability %
ENDPOINT_NAME: viability at 72 h, 75 µM
In your response, put the unit directly after the numeric value.

// Input: "O=C(CCCCCCn1cc(-c2ccc(O[C@H]3O[C@H](CO)[C@@H](O)[C@H](O)[C@H]3O)cc2)nn1)NO" . Output its viability at 72 h, 75 µM only.
100%

---

# Test system: GLUT-2
# PROTOCOL_TEXT: GLUT-2 uptake experiment (phloretin blockade, MTS)
# Format: cell-based
# STUDY_CONDITIONS: African green monkey, VERO cells, with phloretin 25 µM; 100μM; Pre-treated with 25 μM Ph; read-out: VERO Cell Viability %
# Procedure: We observed that Ph selectively mitigated the cytotoxicity of STR-V-53 against the Hep-G2 cell line with no apparent effect on the cytotoxicity of SAHA (Figure 2a). […] This matches our expectation because Hep-G2 cells overexpress GLUT-2 while VERO has limited expression of GLUT-2.[26] […] Hep-G2 or VERO cells were seeded (2500 to 4,000 counts/well) into 96-well plates, in which each well contains 100 µL media. […] After 2.5-4 h incubation, the plates were read using a multiplate reader at 490 nm. […]
ENDPOINT_NAME: viability at 72 h, 100 µM (%)
Numbers only, in %.

Write down the reported viability at 72 h, 100 µM (system: GLUT-2) of "O=C(CCCCCCn1cc(-c2ccc(O[C@H]3O[C@H](CO)[C@@H](O)[C@H](O)[C@H]3O)cc2)nn1)NO"
75.9

---

# PROTOCOL_TEXT: GLUT-2 uptake experiment (phloretin blockade, MTS)
# Format: cell-based
# STUDY_CONDITIONS: African green monkey, VERO cells; 6.5 μM; No addition of Ph; read-out: VERO Cell Viability %
ENDPOINT_NAME: viability at 72 h, 6.5 µM (%)
Numbers only, in %.

Give a short answer stating reported viability at 72 h, 6.5 µM for O=C(CCCCCCC(=O)Nc1ccccc1)NO [SAHA, vorinostat, reference compound] .
97.7

---

Assign IC50 to each entry below.
# Test system: VERO (a normal kidney epithelial cell)
# PROTOCOL_TEXT: MTS cell viability assay, 72 h
# Type: cell-based
# STUDY_CONDITIONS: Table S2; read-out: Anti-proliferation IC50 VERO
Numbers only, in µM.

For orientation, consider the following solved cases.
O=C(CCCCCCn1cc(-c2ccc3cc(O[C@@H]4O[C@H](CO)[C@@H](O)[C@H](O)[C@H]4O)ccc3c2)nn1)NO    33.6
CC(=O)OCC1OC(Oc2ccc3cc(-c4cn(CCCCCCC(=O)NO)nn4)ccc3c2)C(OC(C)=O)C(OC(C)=O)C1OC(C)=O (stereo not shown)    19.2
CC(=O)O[C@H]1[C@H](Oc2ccc(-c3cn(CCCCCCC(=O)NO)nn3)cc2)O[C@H](C)C[C@@H]1N(C)C    76.4
CC(=O)OCC1OC(Oc2ccc(-c3cn(CCCCCCC(=O)NO)nn3)cc2)C(OC(C)=O)C(OC(C)=O)C1OC(C)=O (stereo not shown) [STR-V-176]    77.4
O=C(CCCCCCn1cc(-c2ccc(O[C@@H]3O[C@H](CO)[C@@H](O)[C@H](O)[C@H]3O)cc2)nn1)NO    65.5

Please give the documented IC50 of "O=C(CCCCCCn1cc(-c2ccc3cc(O[C@H]4O[C@H](CO)[C@@H](O)[C@H](O)[C@H]4O)ccc3c2)nn1)NO"
34.1

---

# SYSTEM_UNDER_TEST: HDAC3/ NCOR2 (Homo sapiens)
# Sequence (O15379 whole entry, canonical isoform): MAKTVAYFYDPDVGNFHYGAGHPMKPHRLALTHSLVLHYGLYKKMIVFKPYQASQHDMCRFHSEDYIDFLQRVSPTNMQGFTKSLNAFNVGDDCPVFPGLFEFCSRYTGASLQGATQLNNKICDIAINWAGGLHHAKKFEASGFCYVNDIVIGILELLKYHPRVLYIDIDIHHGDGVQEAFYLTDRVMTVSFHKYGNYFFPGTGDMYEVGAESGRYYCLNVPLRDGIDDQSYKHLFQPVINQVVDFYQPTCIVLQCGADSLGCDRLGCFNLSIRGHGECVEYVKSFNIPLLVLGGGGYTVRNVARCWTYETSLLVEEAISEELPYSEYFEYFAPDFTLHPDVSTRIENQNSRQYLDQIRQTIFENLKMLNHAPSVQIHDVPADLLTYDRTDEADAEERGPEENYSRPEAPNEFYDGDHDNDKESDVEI
# Sequence (Q9Y618 395-489 partner limits assumed): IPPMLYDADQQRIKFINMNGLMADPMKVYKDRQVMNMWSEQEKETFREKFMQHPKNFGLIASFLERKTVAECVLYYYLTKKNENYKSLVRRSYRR
# PROTOCOL_TEXT: HDAC isoform inhibition (BPS Bioscience)
ENDPOINT_NAME: IC50 (nM)
Numbers only, in nM.

Tell me measured IC50 for "O=C(CCCCCCn1cc(-c2ccc(O[C@H]3O[C@H](CO)[C@@H](O)[C@H](O)[C@H]3O)cc2)nn1)NO" please.
21

---

# PROTOCOL_TEXT: Plasma stability (Cyprotex)
# Format: in vitro ADME
# STUDY_CONDITIONS: mouse; murine plasma
ENDPOINT_NAME: half-life (min)
Numbers only, in min.

Complete the entry with half-life for "O=C(CCCCCCn1cc(-c2ccc(O[C@H]3O[C@H](CO)[C@@H](O)[C@H](O)[C@H]3O)cc2)nn1)NO"
46

---

# SYSTEM_UNDER_TEST: HDAC6 (Homo sapiens)
# Sequence (Q9UBN7 whole entry, canonical isoform): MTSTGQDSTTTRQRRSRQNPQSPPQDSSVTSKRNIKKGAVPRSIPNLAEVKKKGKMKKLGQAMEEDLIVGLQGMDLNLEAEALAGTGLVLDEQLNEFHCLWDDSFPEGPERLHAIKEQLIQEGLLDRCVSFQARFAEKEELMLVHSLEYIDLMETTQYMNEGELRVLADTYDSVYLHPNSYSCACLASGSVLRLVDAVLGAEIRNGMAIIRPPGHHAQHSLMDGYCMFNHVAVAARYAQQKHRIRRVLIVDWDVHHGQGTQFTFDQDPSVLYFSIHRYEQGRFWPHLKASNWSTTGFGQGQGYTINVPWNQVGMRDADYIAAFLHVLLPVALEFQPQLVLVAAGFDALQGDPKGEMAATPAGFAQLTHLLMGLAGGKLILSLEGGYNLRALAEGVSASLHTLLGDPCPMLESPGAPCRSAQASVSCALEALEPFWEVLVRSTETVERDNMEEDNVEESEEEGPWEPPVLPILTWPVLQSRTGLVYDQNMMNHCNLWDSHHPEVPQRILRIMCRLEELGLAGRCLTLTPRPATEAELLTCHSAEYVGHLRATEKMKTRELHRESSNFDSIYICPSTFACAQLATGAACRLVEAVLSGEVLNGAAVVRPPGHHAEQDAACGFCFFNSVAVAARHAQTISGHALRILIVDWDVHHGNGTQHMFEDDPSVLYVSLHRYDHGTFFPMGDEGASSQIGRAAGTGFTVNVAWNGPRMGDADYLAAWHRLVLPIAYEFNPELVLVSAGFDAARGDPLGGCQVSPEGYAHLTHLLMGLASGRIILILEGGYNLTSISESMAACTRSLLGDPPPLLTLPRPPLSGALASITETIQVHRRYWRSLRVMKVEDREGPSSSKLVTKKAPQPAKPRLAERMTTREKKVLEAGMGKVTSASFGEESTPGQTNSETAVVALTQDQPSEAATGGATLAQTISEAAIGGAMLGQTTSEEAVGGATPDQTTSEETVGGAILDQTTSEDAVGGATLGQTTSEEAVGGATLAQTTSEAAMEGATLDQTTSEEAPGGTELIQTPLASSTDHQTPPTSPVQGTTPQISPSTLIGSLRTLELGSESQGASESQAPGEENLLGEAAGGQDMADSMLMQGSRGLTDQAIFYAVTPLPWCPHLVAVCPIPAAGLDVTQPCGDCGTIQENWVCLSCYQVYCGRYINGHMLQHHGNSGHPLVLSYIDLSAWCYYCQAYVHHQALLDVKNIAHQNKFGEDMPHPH
# PROTOCOL_TEXT: HDAC isoform inhibition (BPS Bioscience)
# STUDY_CONDITIONS: read-out: HDAC6 IC50; Table S1
Task for the reader: assign each of the following compounds its reported IC50.
One number for each entry, in nM.

O=C(CCCCCCn1cc(-c2ccc3cc(O[C@H]4O[C@H](CO)[C@@H](O)[C@H](O)[C@H]4O)ccc3c2)nn1)NO    4.5
CC(=O)OCC1OC(Oc2ccc3cc(-c4cn(CCCCCCC(=O)NO)nn4)ccc3c2)C(OC(C)=O)C(OC(C)=O)C1OC(C)=O (stereo not shown)    1.65
CC(=O)OCC1OC(Oc2ccc(-c3cn(CCCCCCC(=O)NO)nn3)cc2)C(OC(C)=O)C(OC(C)=O)C1OC(C)=O (stereo not shown) [STR-V-167]    2.61

Report IC50 for "O=C(CCCCCCn1cc(-c2ccc(O[C@@H]3O[C@H](CO)[C@@H](O)[C@H](O)[C@H]3O)cc2)nn1)NO"
2.51
